B1: INTS3 (parent)
chain: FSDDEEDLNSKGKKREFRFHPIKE

- Variants of: B1
- experiment_summary: protein stability index of a GFP-peptide fusion (GPS, HEK-293T) (PSI 1-6); higher = more stable;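 further: lentivirally expressed fusions sorted by FACS into six bins by GFP to DsRed ratio, PSI derived from sequencing read proportions per bin multiplied by bin number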
- test_context: c terminus: a fixed tail appended
Rule: protein stability index of 3 or more gives 1 (yes); anything lower gives 0 (no).

Input: Threshold query (protein stability index >= 3) on FSDDEEDLKSKGKKREFRFHPIKE
Output: 0 (no)

Input: Threshold query (protein stability index >= 3) on FSDDCEDLNSKGKKREFRFHPIKE
Output: 0 (no)

Data provenance is the supplement of paper PMC10567573.
